The reported measurements were obtained from the supplement of paper PMC10567573.

Some variants, each annotated with its measured protein stability index.
B1: NEK8 (parent)
chain: VVGTPCYISPELCEGKPYNQKSDI

- Variants of: B1
- procedure.summary: protein stability index of a GFP-peptide fusion (GPS, HEK-293T) (PSI 1-6); higher = more stable;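 also: lentivirally expressed fusions sorted by FACS into six bins by GFP to DsRed ratio, PSI derived from sequencing read proportions per bin multiplied by bin number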
- protocol.conditions: c terminus: a fixed tail appended

variant.spec	protein stability index
Q20V	2.79
Y7E	4.5
P10I	1.49
E11A	2.68
Y18E	3.72
G15S	2.37
G3H	2.74
